# Tested Target: HEK cells stably transfected with tetracycline inducible hNR1 and hNR2A (Homo sapiens (Human), UniProt Q05586+Q12879)
# Sequence (Q12879 23-1464, other chains not shown): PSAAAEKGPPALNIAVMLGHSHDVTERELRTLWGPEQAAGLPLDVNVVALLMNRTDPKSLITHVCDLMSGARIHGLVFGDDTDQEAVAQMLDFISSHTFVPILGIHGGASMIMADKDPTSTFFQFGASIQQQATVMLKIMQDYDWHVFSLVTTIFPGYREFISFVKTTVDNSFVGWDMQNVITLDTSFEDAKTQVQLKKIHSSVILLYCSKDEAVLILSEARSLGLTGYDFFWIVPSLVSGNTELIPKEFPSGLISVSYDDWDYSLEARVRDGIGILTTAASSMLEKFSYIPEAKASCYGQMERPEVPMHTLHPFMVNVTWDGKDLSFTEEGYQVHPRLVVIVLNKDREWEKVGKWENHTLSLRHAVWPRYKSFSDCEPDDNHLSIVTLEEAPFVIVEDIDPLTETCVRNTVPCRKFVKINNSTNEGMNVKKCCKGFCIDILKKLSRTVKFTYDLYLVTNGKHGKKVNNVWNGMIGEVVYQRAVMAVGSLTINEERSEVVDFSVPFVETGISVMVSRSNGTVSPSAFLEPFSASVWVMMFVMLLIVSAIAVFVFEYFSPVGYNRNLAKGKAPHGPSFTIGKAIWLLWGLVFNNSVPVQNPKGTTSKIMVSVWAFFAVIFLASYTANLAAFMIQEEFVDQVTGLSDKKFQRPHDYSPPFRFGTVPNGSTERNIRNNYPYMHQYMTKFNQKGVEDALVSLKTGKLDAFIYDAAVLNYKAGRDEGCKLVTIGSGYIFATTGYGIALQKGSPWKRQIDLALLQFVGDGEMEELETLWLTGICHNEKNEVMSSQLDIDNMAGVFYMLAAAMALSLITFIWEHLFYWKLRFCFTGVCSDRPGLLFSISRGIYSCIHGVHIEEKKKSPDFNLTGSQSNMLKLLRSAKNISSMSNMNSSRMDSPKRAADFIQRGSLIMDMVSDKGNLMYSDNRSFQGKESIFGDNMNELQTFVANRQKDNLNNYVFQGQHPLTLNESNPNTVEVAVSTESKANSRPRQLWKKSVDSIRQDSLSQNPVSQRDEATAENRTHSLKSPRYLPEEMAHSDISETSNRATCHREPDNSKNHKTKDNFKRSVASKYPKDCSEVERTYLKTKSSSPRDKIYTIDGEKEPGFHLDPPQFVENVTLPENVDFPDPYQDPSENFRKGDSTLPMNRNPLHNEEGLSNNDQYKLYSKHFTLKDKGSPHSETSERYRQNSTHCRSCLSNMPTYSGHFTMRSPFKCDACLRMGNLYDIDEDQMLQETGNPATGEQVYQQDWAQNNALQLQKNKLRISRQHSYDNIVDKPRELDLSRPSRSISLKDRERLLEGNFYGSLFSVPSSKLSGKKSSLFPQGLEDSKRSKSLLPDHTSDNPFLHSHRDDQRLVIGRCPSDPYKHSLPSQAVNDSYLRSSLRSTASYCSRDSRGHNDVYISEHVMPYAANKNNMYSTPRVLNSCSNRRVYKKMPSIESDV
# Assay Overview: Assay 1: Cell-Based Assay (cytosolic calcium, positive allosteric modulation)
# Test Settings: with 30 μM glycine and 300 nM L-glutamate (EC30); given for compounds reaching maximal response plateaus
Readout Kind: EC50 (µM)

>>> df
                                         smi  readout_kind  measurement_unit  quantitative_readout
 0   CCN(Cc1cc(=O)n2c(Br)cccc2n1)c1ccc(F)cc1          EC50                µM                   6.2
 1  COc1ccc2nc(Cn3nc(C(F)(F)F)cc3Cl)cc(=O)n2c1[C@@H]1C[C@H]1C#N          EC50                µM                 0.079
 2  Cc1cc([C@H]2C[C@@H]2C#N)n2c(=O)cc(Cn3nc(C(F)(F)F)cc3Cl)nc2c1          EC50                µM                 0.951
 3  N#C[C@H]1C[C@@H]1c1c(Cl)ccc2nc(Cn3nc(C(F)(F)F)cc3Cl)cc(=O)n12          EC50                µM                  10.6
 4   CCc1cccc2nc(CN(CC)c3ccc(F)cc3)cc(=O)n12          EC50                µM                   6.4
 5  CCNC(=O)c1c(C)ccc2nc(Cn3nc(C4CC4)cc3C(F)(F)F)cc(=O)n12          EC50                µM                  16.2
 6  Cc1cc([C@@H]2C[C@H]2C#N)n2c(=O)cc(Cn3nc(C(F)(F)F)cc3Cl)nc2c1          EC50                µM                 0.039
 7  CNC(=O)c1c(C)ccc2nc(Cn3nc(C(F)(F)F)cc3C3CC3)cc(=O)n12          EC50                µM                   5.9
 8  Cc1ccc2nc(Cn3nc(C(F)(F)F)cc3Cl)cc(=O)n2c1[C@H]1C[C@@H]1C#N          EC50                µM                  25.5
 9  CC(=O)c1c(C)ccc2nc(Cn3nc(Cl)cc3C(F)(F)F)cc(=O)n12          EC50                µM                   9.1
10  CCNC(=O)c1cccc2nc(Cn3nc(C(F)(F)F)cc3C3CC3)cc(=O)n12          EC50                µM                   7.4
11  Cc1ccc2nc(Cn3nc(C(F)(F)F)cc3Cl)cc(=O)n2c1[C@@H]1C[C@H]1CO          EC50                µM                 0.126
12       CCN(Cc1cc(=O)n2cc(C)ccc2n1)c1ccccc1          EC50                µM                  11.1
13    CCN(Cc1cc(=O)n2cc(C)ccc2n1)c1ccc(F)cc1          EC50                µM                   5.2

Attribution: patent US10280165B2
